Conditions: mouse, microsomes, 1 h, 1 μM, pH 7.4
// reported Minus NADPH Parent remaining 2nd per item
# value in %; strip the unit string

>>> reported("O=C(O)C1CCN(c2nc(-c3ccc(Br)cc3)cs2)CC1")
101
>>> reported("NC(=O)C1CCN(c2nc(-c3ccc(Br)cc3)cs2)CC1")
51
>>> reported("CN(C)c1cccc(-c2csc(N3CCC(C(N)=O)CC3)n2)c1")
66

Moving on to another molecule below.
-- ask Item under review: `NC(=O)C1CCN(c2nc(-c3ccc4c(c3)OCCO4)cs2)CC1` . Reported Minus NADPH Parent remaining 2nd?
-- reply 15

Every entry's value here was drawn from patent US20130096160A1.
